- TEST DETAILS: half-life in animal (dog) and in man
- CONDITIONS: in vivo
MEASURED METRIC: half-life (h)
The figure you give is taken to be in h; do not add the unit.

Please look up its half-life: Cc1ncc([N+](=O)[O-])n1CCO
7.3
